All figures here come from patent US20060276464A1.

TEST_SYSTEM: SFRP-1 (Homo sapiens, UniProt Q8N474)
Sequence (Q8N474 32-314): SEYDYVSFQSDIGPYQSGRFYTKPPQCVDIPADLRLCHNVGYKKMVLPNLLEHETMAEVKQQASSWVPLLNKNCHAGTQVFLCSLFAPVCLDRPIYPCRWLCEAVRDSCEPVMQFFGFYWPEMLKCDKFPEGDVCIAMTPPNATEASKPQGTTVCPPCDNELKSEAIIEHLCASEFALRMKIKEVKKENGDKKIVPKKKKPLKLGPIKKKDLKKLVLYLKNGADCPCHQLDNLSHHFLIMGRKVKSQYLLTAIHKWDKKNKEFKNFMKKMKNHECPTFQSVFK
METHOD_SUMMARY: Cell-based assay for in vitro measurement of SFRP-1/SARP2 antagonist activity (U2OS cells co-transfected with 16x TCF-tk-Luciferase reporter, Wnt and hSFRP-1);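 further: U2OS cells co-transfected with a TCF-tk luciferase reporter, a Wnt vector, hSFRP-1 or empty vector and CMV-βgal, luciferase luminescence read in cell lysates alongside βgal activity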
TEST_CONTEXT: U2OS, read-out: Fold Induction with SFRP-1, U2OS cells, single dose 10 μM, luciferase reporter, fold induction over SFRP-1 control
Classify as follows. Reported fold induction at 10 µM greater than or equal to 3: rule met. Reported fold induction at 10 µM below: rule not met.

Reported fold induction at 10 µM reaches at least 3 for O=S(=O)(NC1c2ccccc2CC1O)c1cc(S(=O)(=O)c2ccccc2)ccc1C(F)(F)F (stereo not drawn) [Example 823] ? rule not met

Reported fold induction at 10 µM reaches at least 3 for CC(C)(C)OC(=O)N1CCC(NS(=O)(=O)c2cc(S(=O)(=O)c3ccc(F)cc3)ccc2C(F)(F)F)CC1 [Example 818] ? rule not met

Reported fold induction at 10 µM reaches at least 3 for O=S(=O)(NC1CCN(S(=O)(=O)c2ccc(O)cc2)CC1)c1cc(S(=O)(=O)c2ccccc2)ccc1C(F)(F)F [Example 914] ? rule met

Reported fold induction at 10 µM reaches at least 3 for CN(CCNS(=O)(=O)c1cc(S(=O)(=O)c2ccccc2)ccc1C(F)(F)F)CC(=O)OC(C)(C)C [Example 962] ? rule not met

Reported fold induction at 10 µM reaches at least 3 for CC(C)c1ccc(S(=O)(=O)c2ccc(F)cc2)cc1S(=O)(=O)NC1CCS(=O)(=O)CC1 [Example 858] ? rule met

Reported fold induction at 10 µM reaches at least 3 for CN(CCNS(=O)(=O)c1cc(S(=O)(=O)c2ccccc2)ccc1C(F)(F)F)C(=O)OC(C)(C)C [Example 793] ? rule not met

Reported fold induction at 10 µM reaches at least 3 for CC(C)(C)OC(=O)N1CCC(CNS(=O)(=O)c2cc(S(=O)(=O)c3ccccc3)ccc2C(F)(F)F)CC1 [Example 896] ? rule not met

Reported fold induction at 10 µM reaches at least 3 for O=S(=O)(NCCCN1CCOCC1)c1cc(S(=O)(=O)c2ccccc2)ccc1C(F)(F)F [Example 767] ? rule met

Reported fold induction at 10 µM reaches at least 3 for CC(C)c1ccc(S(=O)(=O)c2ccccc2)cc1S(=O)(=O)NCCc1cccnc1 [Example 672] ? rule met

Reported fold induction at 10 µM reaches at least 3 for CN(CCNS(=O)(=O)c1cc(S(=O)(=O)c2ccccc2)ccc1C(F)(F)F)C(=O)c1ccc(C(F)(F)F)c(F)c1 [Example 847] ? rule not met

Reported fold induction at 10 µM reaches at least 3 for CCCc1ccc(S(=O)(=O)c2ccc(F)cc2)cc1S(=O)(=O)NCCc1ccncc1 [Example 875] ? rule not met

Reported fold induction at 10 µM reaches at least 3 for N#CCCNS(=O)(=O)c1cc(S(=O)(=O)c2ccc(O)cc2)ccc1C(F)(F)F [Example 821] ? rule met

Reported fold induction at 10 µM reaches at least 3 for CC(C)(C)OC(=O)N1CCC(CCNS(=O)(=O)c2cc(S(=O)(=O)c3ccccc3)ccc2C(F)(F)F)CC1 [Example 931] ? rule not met

Reported fold induction at 10 µM reaches at least 3 for Cc1cc2cc(S(=O)(=O)c3ccc(C(F)(F)F)c(S(=O)(=O)NC4CCNCC4)c3)ccc2n1C [Example 792] ? rule not met
